Target: PTPN13_2, Q12923
Sequence (Q12923 1363-1462): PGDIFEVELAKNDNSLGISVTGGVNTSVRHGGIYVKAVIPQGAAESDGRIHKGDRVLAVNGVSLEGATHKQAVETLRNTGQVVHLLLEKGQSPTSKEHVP
Test: holdup assay
Parameters: key: below the threshold = too weak to quantify, mostly under pKd 3.1 to 4
Details: plain residues with an end cap or a label only (N-terminal biotin on a linker: ttds)
property.label: pKd

QSARYRDTEL [TJP2, Q9UDY2] ... below the threshold
PKTPPTDTSV [KIR3DL3, Q8N743] ... below the threshold
SSRTRRETQL [HPV16-E6, P03126] ... below the threshold
